# protocol_details: Single ascending oral dose study in healthy volunteers: plasma pharmacokinetics
# Type: in vivo, human
# test_settings: human, plasma, oral, 525 mg, 72 Hours Postdose; 525 mg; read-out: Plasma concentration, Mean
# Excerpt: This example describes the first-in-human study of Compound I. Based on its mechanism of action, Compound I may offer a targeted therapy for patients with DCM caused by genetic or nongenetic mechanisms. […] The concentrations of Compound I in human plasma and urine were quantitated by high performance liquid chromatography with tandem mass spectrometric detection (LC MS/MS) (Biological sample analysis study report Alturas AD17-726). […]
quantity_measured: concentration at 72 h (ng/mL)
Number in ng/mL, nothing else.

For this compound ( Cn1cc(S(=O)(=O)[C@@](C)(F)C2CCN(C(=O)Nc3ccon3)CC2)c(C(F)F)n1 ), measured concentration at 72 h is 147

---

# protocol_details: Food effect cross-over study, 200 mg (25 mg tablets), healthy volunteers: plasma pharmacokinetics
# Assay type: in vivo, human
# test_settings: human, plasma, oral, 36 hours postdose, Fed, read-out: Plasma concentration, Mean
quantity_measured: concentration at 36 h (ng/mL)
API: value field is a number in ng/mL; no unit string.

Recorded concentration at 36 h (compound Cn1cc(S(=O)(=O)[C@@](C)(F)C2CCN(C(=O)Nc3ccon3)CC2)c(C(F)F)n1 ): 881

---

# protocol_details: Food effect cross-over study, 200 mg (25 mg tablets), healthy volunteers: plasma pharmacokinetics
# Format: in vivo, human
# test_settings: human, plasma, oral, 12 hours postdose, Fasted, read-out: Plasma concentration, Mean
# Protocol: This example describes a clinical study for establishing, in healthy volunteers, the effect of a high fat, high caloric meal on the PK profile of Compound I, as compared to administration of the drug in the fasted state. The study also was intended to determine the safety and tolerability after a single oral dose of Compound I in the fed and fasted state in healthy volunteers. […] Plasma drug concentrations were measured as described in Example 1 above. […]
quantity_measured: concentration at 12 h
Include the unit after the number when you answer.

// concentration at 12 h lookup, molecule = Cn1cc(S(=O)(=O)[C@@](C)(F)C2CCN(C(=O)Nc3ccon3)CC2)c(C(F)F)n1 [Compound I] , result: 1740 ng/mL

---

# protocol_details: Food effect cross-over study, 200 mg (25 mg tablets), healthy volunteers: plasma pharmacokinetics
# Type: in vivo, human
# test_settings: human, plasma, oral, 3 hours postdose, Fasted, read-out: Plasma concentration, Geometric Mean
quantity_measured: concentration at 3 h (ng/mL)
Only the number, expressed in ng/mL, is required.

compound Cn1cc(S(=O)(=O)[C@@](C)(F)C2CCN(C(=O)Nc3ccon3)CC2)c(C(F)F)n1 , concentration at 3 h observed: 2090

---

# protocol_details: Food effect cross-over study, 200 mg (25 mg tablets), healthy volunteers: plasma pharmacokinetics
# Type: in vivo, human
# test_settings: human, plasma, oral, 3 hours postdose, Fed, read-out: Plasma concentration, Mean
quantity_measured: concentration at 3 h (ng/mL)
The figure you give is taken to be in ng/mL; do not add the unit.

Documented concentration at 3 h of Cn1cc(S(=O)(=O)[C@@](C)(F)C2CCN(C(=O)Nc3ccon3)CC2)c(C(F)F)n1 [Compound I] : 2340

---

# protocol_details: Single ascending oral dose study in healthy volunteers: plasma pharmacokinetics
# Type: in vivo, human
# test_settings: human, plasma, oral, 175 mg; read-out: AUC0-last, Mean
quantity_measured: AUC(0-t)

The measured AUC(0-t) associated with Cn1cc(S(=O)(=O)[C@@](C)(F)C2CCN(C(=O)Nc3ccon3)CC2)c(C(F)F)n1 [Compound I] reads 39000 ng·h/mL

---

# protocol_details: Single ascending oral dose study in healthy volunteers: plasma pharmacokinetics
# Assay type: in vivo, human
# test_settings: human, plasma, oral, 3 mg; read-out: AUC0-∞, Mean
quantity_measured: AUC(0-inf)
# number then unit; no other words

Summary for this compound, Cn1cc(S(=O)(=O)[C@@](C)(F)C2CCN(C(=O)Nc3ccon3)CC2)c(C(F)F)n1 : AUC(0-inf) is 741 ng·h/mL

---

# protocol_details: HFrEF study Part 1 (SAD Cohorts 1 and 2): plasma pharmacokinetics
# Assay type: in vivo, human
# test_settings: human, plasma, oral, 500 mg, SAD Cohort 2, 500 mg split dose (n = 4); read-out: Cmax
quantity_measured: Cmax (ng/mL)
Note: unit ng/mL is implicit; provide only the numeric part.

Recorded result, Cn1cc(S(=O)(=O)[C@@](C)(F)C2CCN(C(=O)Nc3ccon3)CC2)c(C(F)F)n1 , Cmax: 5880

---

# protocol_details: Single ascending oral dose study in healthy volunteers: plasma pharmacokinetics
# Format: in vivo, human
# test_settings: human, plasma, oral, 175 mg; read-out: AUC0-last, Median
quantity_measured: AUC(0-t) (ng·h/mL)
State just the number; it will be interpreted in ng·h/mL.

The molecule listed as Cn1cc(S(=O)(=O)[C@@](C)(F)C2CCN(C(=O)Nc3ccon3)CC2)c(C(F)F)n1 has a reported AUC(0-t) of 39600

---

# protocol_details: Single ascending oral dose study in healthy volunteers: plasma pharmacokinetics
# Format: in vivo, human
# test_settings: human, plasma, oral, 6 hours post-dose; bin 0-1000 ng/mL (n = 29); read-out: Plasma Concentration, Mean
quantity_measured: concentration at 6 h (ng/mL)
Unit ng/mL implied. Number only.

Query Cn1cc(S(=O)(=O)[C@@](C)(F)C2CCN(C(=O)Nc3ccon3)CC2)c(C(F)F)n1 yields concentration at 6 h of 334

---

# protocol_details: Single ascending oral dose study in healthy volunteers: plasma pharmacokinetics
# Assay type: in vivo, human
# test_settings: human, plasma, oral, 3 mg, 12 Hours Postdose; 3 mg; read-out: Plasma concentration, Mean
quantity_measured: concentration at 12 h (ng/mL)
Answer format: numeric, ng/mL implied, no suffix.

// Cn1cc(S(=O)(=O)[C@@](C)(F)C2CCN(C(=O)Nc3ccon3)CC2)c(C(F)F)n1 [Compound I] : concentration at 12 h value = 21.9

---

# protocol_details: Food effect cross-over study, 200 mg (25 mg tablets), healthy volunteers: plasma pharmacokinetics
# Format: in vivo, human
# test_settings: human, plasma, oral, N = 11, read-out: AUCinf, Fasted LSGM
quantity_measured: AUC(0-inf) (ng·h/mL)
A number alone suffices; assume ng·h/mL.

Entry Cn1cc(S(=O)(=O)[C@@](C)(F)C2CCN(C(=O)Nc3ccon3)CC2)c(C(F)F)n1 ; AUC(0-inf) = 59400

---

# protocol_details: Single ascending oral dose study in healthy volunteers: plasma pharmacokinetics
# Format: in vivo, human
# test_settings: human, plasma, oral, 10 mg; read-out: Half-Life Lambda Z, Geometric Mean (converted)
quantity_measured: half-life

Entry Cn1cc(S(=O)(=O)[C@@](C)(F)C2CCN(C(=O)Nc3ccon3)CC2)c(C(F)F)n1 [Compound I] , half-life reported as 13.2 h

---

# protocol_details: Single ascending oral dose study in healthy volunteers: plasma pharmacokinetics
# Format: in vivo, human
# test_settings: human, plasma, oral, 350 mg, 72 Hours Postdose; 350 mg; read-out: Plasma concentration, Geometric Mean
# Excerpt: This example describes the first-in-human study of Compound I. Based on its mechanism of action, Compound I may offer a targeted therapy for patients with DCM caused by genetic or nongenetic mechanisms. […] The concentrations of Compound I in human plasma and urine were quantitated by high performance liquid chromatography with tandem mass spectrometric detection (LC MS/MS) (Biological sample analysis study report Alturas AD17-726). […]
quantity_measured: concentration at 72 h (ng/mL)
Enter your answer as a number in ng/mL; do not include the unit.

Input Cn1cc(S(=O)(=O)[C@@](C)(F)C2CCN(C(=O)Nc3ccon3)CC2)c(C(F)F)n1 . Output concentration at 72 h: 101

---

# protocol_details: Food effect cross-over study, 200 mg (25 mg tablets), healthy volunteers: plasma pharmacokinetics
# Type: in vivo, human
# test_settings: human, plasma, oral, 4 hours postdose, Fed, read-out: Plasma concentration, Mean
quantity_measured: concentration at 4 h

The measured concentration at 4 h associated with Cn1cc(S(=O)(=O)[C@@](C)(F)C2CCN(C(=O)Nc3ccon3)CC2)c(C(F)F)n1 reads 2810 ng/mL

---

# protocol_details: Food effect cross-over study, 200 mg (25 mg tablets), healthy volunteers: plasma pharmacokinetics
# Type: in vivo, human
# test_settings: human, plasma, po, single 200 mg oral dose, Fed (N = 10), read-out: AUClast, Mean
# Method: This example describes a clinical study for establishing, in healthy volunteers, the effect of a high fat, high caloric meal on the PK profile of Compound I, as compared to administration of the drug in the fasted state. The study also was intended to determine the safety and tolerability after a single oral dose of Compound I in the fed and fasted state in healthy volunteers. […] Plasma drug concentrations were measured as described in Example 1 above. […]
quantity_measured: AUC(0-t) (ng·h/mL)
Numbers only here, please. The scale is ng·h/mL.

Sure, the documented AUC(0-t) for Cn1cc(S(=O)(=O)[C@@](C)(F)C2CCN(C(=O)Nc3ccon3)CC2)c(C(F)F)n1 is 89900
